Molecular target: D-aspartate oxidase (Homo sapiens, UniProt Q99489)
Sequence (Q99489 whole entry): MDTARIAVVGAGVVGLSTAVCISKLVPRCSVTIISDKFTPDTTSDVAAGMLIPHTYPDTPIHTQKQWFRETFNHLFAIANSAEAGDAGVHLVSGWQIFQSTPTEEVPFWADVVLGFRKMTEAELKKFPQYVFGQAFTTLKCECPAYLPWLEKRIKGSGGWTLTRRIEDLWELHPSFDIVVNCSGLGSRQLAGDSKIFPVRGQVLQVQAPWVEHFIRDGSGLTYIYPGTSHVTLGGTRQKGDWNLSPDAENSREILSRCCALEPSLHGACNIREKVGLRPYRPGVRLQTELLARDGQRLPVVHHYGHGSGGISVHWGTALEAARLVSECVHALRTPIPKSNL
Assay: Inhibition of human recombinant DDO expressed in Escherichia coli BL21(DE3) using D-Asp and D-Ala assessed as 2-oxo acid production after 10 mins by colorimetric assay
Reported IC50 by item:
measurement name: IC50

1. Nc1cccnc1 > 10 mM
2. Nc1cnccc1C(=O)O > 5 mM
3. Nc1cc(C(=O)O)ccn1 > 0.1 mM
4. COc1cncc(C(=O)O)c1 > 10 mM
5. O=C(O)c1cc2ccccc2n1O > 1 mM
6. O=C(O)c1cncc(-c2ccccc2)c1 > 5 mM
7. O=C(O)c1cc(F)ccc1O > 10 mM
8. Nc1ccc(Cl)cc1C(=O)O > 10 mM
9. Nc1cccnc1C(=O)O > 1 mM
10. O=C(O)c1cncc(S(=O)(=O)O)c1 > 10 mM
11. Nc1ccncc1C(=O)O > 0.1 mM
12. Cc1cc(C(=O)O)c(N)s1 4.25 mM
13. O=C(O)CC(=O)O 0.879 mM
14. CNc1cncc(C(=O)O)c1 3.54 mM
15. Nc1ccnc(C(=O)O)c1 > 0.1 mM
16. O=C(O)c1cncc(C(F)(F)F)c1 > 10 mM

* * *

Reported Ki by item:
Target: D-aspartate oxidase (Rattus norvegicus, UniProt D3ZDM7)
Sequence (D3ZDM7 whole entry): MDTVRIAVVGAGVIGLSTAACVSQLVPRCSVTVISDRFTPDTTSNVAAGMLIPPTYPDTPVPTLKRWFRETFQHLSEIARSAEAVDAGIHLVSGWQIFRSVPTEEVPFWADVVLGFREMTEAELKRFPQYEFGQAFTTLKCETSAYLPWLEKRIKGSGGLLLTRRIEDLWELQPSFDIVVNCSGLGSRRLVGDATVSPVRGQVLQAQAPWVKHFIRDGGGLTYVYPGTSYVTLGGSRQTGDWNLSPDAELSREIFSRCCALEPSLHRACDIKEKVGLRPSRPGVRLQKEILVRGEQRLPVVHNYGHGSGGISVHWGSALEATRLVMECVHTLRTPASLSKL
Assay: Inhibition of rat recombinant DDO using D-Asp
measurement name: Ki

1) Nc1cncc(C(=O)O)c1 5.89 µM
2) O=C(O)c1cn2cnnc2nc1O 65.9 µM
3) O=C(O)CC(=O)O 1560 µM

* * *

Biological target: D-aspartate oxidase (Homo sapiens)
Assay: Inhibition of human recombinant DDO expressed in Escherichia coli BL21(DE3) using D-Asp and D-Ala assessed as 2-oxo acid production after 10 mins by colorimetric assay
pIC50: −log10 of the molar value.
measurement name: pIC50

compound	measurement name	reported result
O=C(O)c1cncc(O)c1	pIC50	2.47
Nc1ncccc1C(=O)O	pIC50	< 3.00
O=C(O)c1cccnc1 [NIACIN]	pIC50	2.56
O=C(O)c1cncc([N+](=O)[O-])c1	pIC50	< 2.00
Cc1cncc(C(=O)O)c1	pIC50	2.26
O=C(O)c1ncccc1O	pIC50	< 2.00
Nc1cccc(C(=O)O)c1 [3-AMINOBENZOIC ACID]	pIC50	< 2.00
O=C(O)c1cncc(F)c1 [5-FLUORONICOTINIC ACID]	pIC50	< 2.00

* * *

Reported pKi by item:
Biological target: D-aspartate oxidase (Mus musculus, UniProt Q922Z0)
Sequence (Q922Z0 whole entry): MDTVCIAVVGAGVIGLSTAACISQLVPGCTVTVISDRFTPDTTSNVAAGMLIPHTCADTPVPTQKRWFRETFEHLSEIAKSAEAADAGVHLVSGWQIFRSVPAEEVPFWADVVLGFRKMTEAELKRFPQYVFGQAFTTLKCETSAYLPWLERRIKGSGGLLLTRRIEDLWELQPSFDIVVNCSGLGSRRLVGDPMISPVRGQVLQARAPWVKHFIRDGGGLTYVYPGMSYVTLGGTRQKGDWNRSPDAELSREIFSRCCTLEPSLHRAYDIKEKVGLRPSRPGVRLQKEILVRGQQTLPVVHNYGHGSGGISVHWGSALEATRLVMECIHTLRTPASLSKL
Assay: Inhibition of mouse recombinant DDO using D-Asp
pKi: −log10 of the molar value.
measurement name: pKi

1. O=C(O)CC(=O)O 2.91
2. O=C(O)c1cn2cnnc2nc1O 4.49
3. Nc1cncc(C(=O)O)c1 5.06
